B1: glmS ribozyme (parent)
chain: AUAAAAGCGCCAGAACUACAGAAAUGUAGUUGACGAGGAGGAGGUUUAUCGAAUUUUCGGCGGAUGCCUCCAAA

variants of: B1; test: kcat; higher = faster cleavage; RNA array; conditions: with glucosamine-6-phosphate
This sample holds only a part of the variants without activity.
propertyMeasured: kcat

Which kcat value belongs to G32C C58U ?
3.33e-05 s⁻¹

Requested field: kcat. Item: G44U U56G
0.00018 s⁻¹

Consider the variant shown here: C10A C67U C71G What is its recorded kcat?
2.93e-05 s⁻¹

What does the data say about its kcat? Entry: U45C C67U
0.00406 s⁻¹

Which kcat reading was recorded for the variant A39U U47C ?
0.00869 s⁻¹

# input variant: A6U U31G ; wanted: its kcat
8.41e-05 s⁻¹

Value lookup for kcat; key = C34U A48G C68A
< 1e-05 s⁻¹

Form field: reported kcat of G29U G40U
0.000422 s⁻¹

Record request: kcat value, item U30G G59U
1.09e-05 s⁻¹

Look up kcat: C16U A36U
< 1e-05 s⁻¹

Returns the measured kcat for the input variant. Input: `A20C`
0.0144 s⁻¹

Suppose we examine the variant A52G C71U ; what kcat value has been reported?
0.00186 s⁻¹

For the variant shown here, G41C A53G , give the reported kcat.
0.000359 s⁻¹

Find the recorded kcat belonging to G40A U56A and report it.
0.00543 s⁻¹

Values were extracted from the supplement of paper PMC7125110.
